Below: a set of entries, each annotated with reported melting point.

These solved cases illustrate the format of a correct answer.
{"compound": "COc1cc(OCc2cccnc2)ccc1/C=C/c1cc(/C=C/c2cccc3[nH]ccc23)n[nH]1", "melting point": "109 to 114 °C"}
{"compound": "COCc1nc2c(OC)ccc(CCc3ccncc3)c2[nH]1", "melting point": "154 to 156 °C"}
{"compound": "Cc1ccc2c(c1)C=Cc1sc(C)nc1C2c1cn(CCN2CCCC2)c(=O)[nH]c1=S (stereo not given)", "melting point": "198 °C"}
{"compound": "O=C(Cc1ccccc1)c1ccc(C(F)(F)F)cc1", "melting point": "127 to 128 °C"}
{"compound": "Cc1ccc(C2c3c(C)c(N4CCN(c5cccnc5)CC4)c(C)c(C)c3OC2(C)C)cc1 (stereo not given)", "melting point": "136 to 137 °C"}

Please find the next compound below.
Ask: Return the recorded melting point value; entry: CCC12CCC3c4ccc(OC)cc4C(C)CC3C1CCC2O (stereo not given)
Result: 150 to 160 °C

----------
attribute measured: melting point

{"molecule": "C/C(=C\\c1ccc(OCCN(C)C)cc1)c1ccc2c(c1)C(C)(C)CCS2", "melting point": "81 to 82 °C"}
{"molecule": "CSc1ccc2c(C3=C(c4cn(C)c5cc([N+](=O)[O-])ccc45)C(=O)NC3=O)cn(C)c2c1", "melting point": "273 to 275 °C"}
{"molecule": "Cc1ccc(C(=O)C2=C(O)C(=O)N(c3ccc(C)cn3)C2c2ccc(C(C)C)cc2)cc1 (stereo not given)", "melting point": "259 to 261 °C"}
{"molecule": "CC(C)(C)NC(=O)N1C(=O)[C@H](O)[C@@H]1c1ccccc1", "melting point": "148 to 151 °C"}

Ask: Return the recorded melting point value; entry: `C#CCOc1ccc2c(C)cc(=O)oc2c1C(=O)C=Cc1cccc(OC)c1`
Result: 154 to 156 °C

----------
attribute measured: melting point

{"compound": "COc1ccc(CNc2nc(N)nc3c2ncn3C2CC(F)C(CO)O2)cc1 (stereo not drawn)", "observed measurement": "194 to 195 °C"}
{"compound": "O=c1[nH]c2[nH]c3ccc(Cl)cc3c2c2c(F)cccc12", "observed measurement": "> 300 °C"}

Ask: Return the recorded melting point value; entry: `O=Cc1ccc(OCCCC(=O)O)c(Cl)c1`
Result: 128 to 131 °C

----------
attribute measured: melting point

Ask: Return the recorded melting point value; entry: CC(C)CN(C)c1ccccc1CS(=O)c1nc2ncccc2[nH]1 (centres undefined)
Result: 116 to 118 °C

Ask: Return the recorded melting point value; entry: `CCCCCCCCCCCCCCCCOc1ccc(OCC(=O)NCc2ccccn2)cc1`
Result: 68 to 69 °C

Ask: Return the recorded melting point value; entry: CCCC(C)n1c(=O)nc(-n2cccn2)[nH]c1=O (centres undefined)
Result: 99 to 100 °C

----------
Below: a set of entries, each annotated with reported melting point.

These solved cases illustrate the format of a correct answer.
{"compound": "CCOC(=O)c1cnoc1-c1ccc(F)c(Br)c1", "melting point": "111 to 112 °C"}
{"compound": "C=C(C)COc1ccc(C(=O)c2ccccc2)cc1", "melting point": "85 to 86.5 °C"}
{"compound": "CCOc1cc2nc(NC)nc(-c3cccc(-c4cccnc4SC)c3)c2cc1OCC", "melting point": "105 to 107 °C"}
{"compound": "Cc1c(NC(=O)NCCO)c(C)c2c(c1-c1ccccc1)OCC2c1ccc(C(C)C)cc1 (stereo not drawn)", "melting point": "152 to 155 °C"}
{"compound": "COc1cc(Cl)cnc1OCC#Cc1ccc(Cl)cc1", "melting point": "109 to 110 °C"}

Ask: Return the recorded melting point value; entry: `C[C@H]1CCCC(C)(C)[C@@H]1C(=O)c1ccco1`
Result: 81 to 84 °C

Ask: Return the recorded melting point value; entry: `COC(=O)c1nc(-c2ccc(Cl)cc2)c(Cl)c(N)c1OC`
Result: 139 to 141 °C

Ask: Return the recorded melting point value; entry: `Sc1nc2cc(Cl)c(Cl)cc2s1`
Result: 234 to 236 °C
